observationType: melting point (°C)

{"compound": "N#C/C(C(=O)Nc1ccc(C(F)(F)F)cc1)=C(/O)CC(O)c1ccc(C#N)cc1 (centres unmarked)", "melting point, °C": 180}
{"compound": "N#C/C(C(=O)Nc1ccc(C(F)(F)F)cc1)=C(/O)CC(O)C#Cc1ccccc1 (centres unmarked)", "melting point, °C": 168}
{"compound": "N#C/C(C(=O)Nc1ccc(C(F)(F)F)cc1)=C(/O)CC(O)c1ccncc1 (centres unmarked)", "melting point, °C": 203}
{"compound": "C=CC(O)C/C(O)=C(\\C#N)C(=O)Nc1ccc(C(F)(F)F)cc1 (centres unmarked) [Example 27]", "melting point, °C": 141}
{"compound": "N#C/C(C(=O)Nc1ccc(C(F)(F)F)cc1)=C(/O)CC(O)c1ccoc1 (centres unmarked)", "melting point, °C": 146}
